Just for reference, patent US11180481B2 is where these values come from.

- tested_target: N-terminal His6-tagged Mdm225-117 (Homo sapiens, UniProt Q00987)
- Construct: 25-117 fusion protein; made in house; host or cells: E. coli BL21 DE3 pLySS, pET-14B vector
- experiment_summary: Fluorescence polarization competitive binding assay with fluorescein labeled p53 peptide (Flu-p53)
- condition_summary: Table 5, restated by sequence; read-out: Experimental Kd
- Experimental: The relative affinities of peptides for N-terminal His6-tagged Mdm225-117 were determined using fluorescence polarization based competitive binding assay with fluorescein labeled p53 peptide, Flu-p53. The polarization experiments were performed with a DTX 880 Multimode Detector (Beckman) at 25° C., with excitation and emission wavelengths at 485 nm and 535 nm, respectively. All samples were prepared in 96 well plates in 0.1% pluronic F-68 (Sigma). […]
readout: Kd
# output: numeric value plus its unit

Solved cases below.
| molecule | Kd |
| --- | --- |
| CC(C)C[C@@H](C(N)=O)N1CCN(C(=O)[C@H](Cc2c[nH]c3ccccc23)N2CCN[C@@H](Cc3cccc4ccccc34)C2=O)[C@@H](Cc2ccccc2)C1=O [Mimetic 15, (Nap)WFL-NH2] | 850 nM |
| CC(C)C[C@@H](C(N)=O)N1CCN(C(=O)[C@H](Cc2c[nH]c3ccccc23)N2CCN[C@@H](Cc3cccc(Cl)c3)C2=O)[C@@H](Cc2ccccc2)C1=O [Mimetic 18, F(3-Cl)WFL-NH2] | 330 nM |
| CCCC[C@@H](C(N)=O)N1CCN(C(=O)[C@H](Cc2c[nH]c3ccccc23)N2CCN[C@@H](Cc3ccccc3)C2=O)[C@@H](Cc2ccccc2)C1=O [Mimetic 13, FWF(Nle)-NH2] | 2460 nM |
| Cc1cccc(C[C@@H]2NCCN([C@@H](Cc3c[nH]c4ccccc34)C(=O)N3CCN([C@@H](CC(C)C)C(N)=O)C(=O)[C@@H]3Cc3ccccc3)C2=O)c1 [Mimetic 19, F(3-Me)WFL-NH2] | 2600 nM |

Next molecule, Kd to be filled in.
Reported N-terminal His6-tagged Mdm225-117 (Homo sapiens, UniProt Q00987) Kd for item CC(C)C[C@@H](C(N)=O)N1CCN(C(=O)[C@H](Cc2c[nH]c3ccccc23)N2CCN[C@@H](Cc3ccc(O)cc3)C2=O)[C@@H](Cc2ccccc2)C1=O [Mimetic 16, YWFL-NH2] was 400 nM
